Reference source for all entries: patent US20240043427A1

molecular target: CD73 (Homo sapiens (Human)); type: biochemical; conditions: 1 mM NaH2PO4 in enzyme buffer, CD73 0.3 nM, AMP 15 uM
attributeMeasured: IC50 (nM)

{"columns": ["molecule", "IC50 (nM)"],
 "data": [
  ["O=c1[nH]cc(-c2cc([C@H]3C[C@@H]3c3cc4c(cn3)c(F)cn4CC(F)(F)F)c3nccn3n2)c(=O)[nH]1 [Example 706]", 0.33]
]}

[a] O=c1[nH]cc(-c2cc(N3CC4(CCC4)C3)c3nccn3n2)c(=O)[nH]1
[b] O=c1[nH]cc(-c2cc([C@H]3C[C@@H]3c3cc(-c4ccc(F)cc4F)ccn3)c3nccn3n2)c(=O)[nH]1 (racemic)
[c] O=c1[nH]cc(-c2cc([C@H]3C[C@@H]3c3ccc4cnn(CC(F)(F)F)c4c3)c3nccn3n2)c(=O)[nH]1
[d] O=c1[nH]cc(-c2cc(N3CCC(C4CC(F)(F)C4)C3)c3nccn3n2)c(=O)[nH]1 (stereo not shown)
[e] O=c1[nH]cc(-c2cc(N3CC(OC(F)F)C(F)(F)C3)c3nccn3n2)c(=O)[nH]1 (stereo not shown)
*Q* Order the entries by their reported IC50, beginning at the minimum. To answer, arrange all of the labels according to the requested order.
*A* c, e, b, a, d

* * *

biological target: CD73 (Homo sapiens (Human), UniProt P21589); assay: MDA-MB-231 Cell Based CD73 Activity Assay (DMEM); conditions: MDA-MB-231-GFP cells, DMEM medium with 10% human plasma, 200 uM AMP
Sequence (P21589 27-574): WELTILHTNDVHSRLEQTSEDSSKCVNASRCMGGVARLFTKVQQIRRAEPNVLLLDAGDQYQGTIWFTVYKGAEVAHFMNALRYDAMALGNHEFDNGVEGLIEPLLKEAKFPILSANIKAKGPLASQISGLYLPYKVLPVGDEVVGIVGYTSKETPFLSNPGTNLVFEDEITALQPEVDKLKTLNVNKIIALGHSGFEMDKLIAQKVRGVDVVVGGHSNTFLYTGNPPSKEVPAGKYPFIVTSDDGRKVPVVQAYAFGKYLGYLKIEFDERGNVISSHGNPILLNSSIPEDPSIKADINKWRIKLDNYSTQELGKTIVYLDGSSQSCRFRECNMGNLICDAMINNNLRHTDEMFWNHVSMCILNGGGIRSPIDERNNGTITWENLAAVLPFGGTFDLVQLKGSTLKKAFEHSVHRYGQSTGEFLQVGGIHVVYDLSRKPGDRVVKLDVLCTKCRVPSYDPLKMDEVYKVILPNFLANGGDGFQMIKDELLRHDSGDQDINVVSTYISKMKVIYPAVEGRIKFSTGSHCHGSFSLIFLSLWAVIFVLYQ
attributeMeasured: EC50 (nM)

{"columns": ["structureString", "EC50, nM"],
 "data": [
  ["O=c1[nH]cc(-c2cc(N3CC[C@H](OC(F)(F)F)C3)c3nccn3n2)c(=O)[nH]1", 243],
  ["CC(C)(C)CNc1cc(-c2c[nH]c(=O)[nH]c2=O)nn2ccnc12", 857]
]}

[1] CC(C)Cc1cn2nc(-c3c[nH]c(=O)[nH]c3=O)cc(N3CC(F)(F)C4(CC4)C3)c2n1
[2] O=c1[nH]cc(-c2cc(N3CC(CC(F)F)C3)c3nccn3n2)c(=O)[nH]1
*Q* Lab note: record which item had the higher EC50, 1 or 2 . # respond with the chosen item's label
*A* 1
(1: 932 nM, 2: 188 nM)

* * *

target: CD73 (Homo sapiens (Human)); assay: MDA-MB-231 Cell Based CD73 Activity Assay (DMEM); conditions: MDA-MB-231-GFP cells, DMEM medium with 10% human plasma, 200 uM AMP
attributeMeasured: EC50 (nM)

// solved cases for EC50 follow
{"columns": ["molecule", "unitText", "readoutNumber"],
 "data": [
  ["COC1CN(c2cc(-c3c[nH]c(=O)[nH]c3=O)nn3c(F)cnc23)CC1(F)F (stereo not drawn)", "nM", 26.7],
  ["O=c1[nH]cc(-c2cc(N3C[C@H]4CCC[C@H]4C3)c3nccn3n2)c(=O)[nH]1", "nM", 66.4],
  ["O=c1[nH]cc(-c2cc([C@H]3C[C@@H]3c3ccc(OC(F)F)cn3)c3nccn3n2)c(=O)[nH]1 (racemic) [Example 136]", "nM", 6.37],
  ["O=C(OCC(F)(F)F)O[C@@H]1CN(c2cc(-c3c[nH]c(=O)[nH]c3=O)nn3ccnc23)CC1(F)F", "nM", 17.4],
  ["O=c1[nH]cc(-c2cc(N3CC(F)(F)C4(CC4)C3)c3nncn3n2)c(=O)[nH]1", "nM", 13.5],
  ["O=c1[nH]cc(-c2cc(N3CCC4(CCC(F)(F)CC4)C3)c3nccn3n2)c(=O)[nH]1", "nM", 66.1]
]}

[A] CC(C)n1ncc2ccc([C@H]3C[C@@H]3c3cc(-c4c[nH]c(=O)[nH]c4=O)nn4ccnc34)cc21 [Example 120]
[B] O=c1[nH]cc(-c2cc([C@H]3C[C@@H]3c3ccc4nc(C(F)(F)F)n(CC(F)(F)F)c4c3)c3nccn3n2)c(=O)[nH]1 [Example 620]
*Q* Lab note: record which item had the higher EC50, A or B . # respond with the chosen item's label
*A* A

[a] O=c1[nH]cc(-c2cc(N3CC(F)(C(F)(F)F)C3)n3ncnc3n2)c(=O)[nH]1
[b] O=c1[nH]cc(-c2cc([C@H]3C[C@@H]3c3cc(OCC4CC4(F)F)c(Cl)cn3)c3nccn3n2)c(=O)[nH]1 (mixture of isomers)
[c] O=C1CN(c2cc(-c3c[nH]c(=O)[nH]c3=O)nn3ccnc23)CCN1Cc1ccc(F)cc1
*Q* // sort entries: EC50, high to low To answer, arrange all of the labels according to the requested order.
*A* c, a, b

[I] Cc1cc([C@H]2C[C@@H]2c2cc(-c3c[nH]c(=O)[nH]c3=O)nn3ccnc23)ccc1C#N
[II] O=C(NC1CN(c2cc(-c3c[nH]c(=O)[nH]c3=O)nn3ccnc23)CC1(F)F)c1ccccc1 (stereo not drawn)
[III] O=c1[nH]cc(-c2cc(N3CC(C4CCC4)C3)c3nccn3n2)c(=O)[nH]1
[IV] O=c1[nH]cc(-c2cc([C@@H]3[C@@H](c4ccc(F)c(F)c4)C3(F)F)c3nccn3n2)c(=O)[nH]1 (racemic)
*Q* Order the entries by their reported EC50, beginning at the minimum. To answer, arrange all of the labels according to the requested order.
*A* I, IV, II, III
